In this section we review reported viability, T/C values for a set of molecules.
Test system: 475296-252-R-J1-PDC spheroid viability
Assay: Anticancer human tumor 475296-252-R-J1-PDC patient-derived rectal carcinoma cell line growth inhibition [PI3K]
Details: second compound 0.1 µM; first compound 0.001 µM; active compounds read low; spheroids with HUVEC and MSC
Express it in %; write the number only.

Consider the worked cases shown below.
>  <molecule>
CC(=O)c1c(C)c2cnc(Nc3ccc(N4CCNCC4)cn3)nc2n(C2CCCC2)c1=O + Cc1nc(NC(=O)N2CCCC2C(N)=O)sc1-c1ccnc(C(C)(C)C(F)(F)F)c1

>  <units>
%

>  <viability, T/C>
94.4

$$$$
>  <molecule>
CC(=O)c1c(C)c2cnc(Nc3ccc(N4CCNCC4)cn3)nc2n(C2CCCC2)c1=O + CC(Nc1ccc2c(c1)OCCn1cc(N3C(=O)OCC3C(F)F)nc1-2)C(N)=O

>  <units>
%

>  <viability, T/C>
91.8

$$$$
>  <molecule>
CC(=O)c1c(C)c2cnc(Nc3ccc(N4CCNCC4)cn3)nc2n(C2CCCC2)c1=O + COc1c(OCCCN2CCOCC2)ccc2c3n(c(=NC(=O)c4cnc(N)nc4)nc12)CCN3

>  <units>
%

>  <viability, T/C>
82.3

$$$$
>  <molecule>
Cn1ncnc1[C@H]1c2n[nH]c(=O)c3cc(F)cc(c23)N[C@@H]1c1ccc(F)cc1 + COc1c(OCCCN2CCOCC2)ccc2c3n(c(=NC(=O)c4cnc(N)nc4)nc12)CCN3

>  <units>
%

>  <viability, T/C>
99.1

$$$$
>  <molecule>
CC(=O)c1c(C)c2cnc(Nc3ccc(N4CCNCC4)cn3)nc2n(C2CCCC2)c1=O + CC(Nc1ncnc2nc[nH]c12)c1cc2cccc(Cl)c2c(=O)n1-c1ccccc1

>  <units>
%

>  <viability, T/C>
106

$$$$
>  <molecule>
Cn1ncnc1[C@H]1c2n[nH]c(=O)c3cc(F)cc(c23)N[C@@H]1c1ccc(F)cc1 + CC(Nc1ncnc2nc[nH]c12)c1cc2cccc(Cl)c2c(=O)n1-c1ccccc1

>  <units>
%

>  <viability, T/C>
87.5

$$$$
>  <molecule>
CC(C)n1nc(-c2ccc3oc(N)nc3c2)c2c(N)ncnc21 + CC(Nc1ncnc2nc[nH]c12)c1cc2cccc(Cl)c2c(=O)n1-c1ccccc1

>  <units>
%

>  <viability, T/C>
88.2

$$$$
>  <molecule>
CC(C)n1nc(-c2ccc3oc(N)nc3c2)c2c(N)ncnc21 + CC(Nc1ccc2c(c1)OCCn1cc(N3C(=O)OCC3C(F)F)nc1-2)C(N)=O

>  <units>
%

>  <viability, T/C>
88

$$$$

# next molecule below
Write down viability, T/C measured for item Cn1ncnc1[C@H]1c2n[nH]c(=O)c3cc(F)cc(c23)N[C@@H]1c1ccc(F)cc1 + CC(Nc1ccc2c(c1)OCCn1cc(N3C(=O)OCC3C(F)F)nc1-2)C(N)=O
101

###

Tested on: 475296-252-R-J1-PDC spheroid viability
Test: Anticancer human tumor 475296-252-R-J1-PDC cell line growth inhibition [PI3K];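 note: spheroids exposed to agents for seven days before readout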
Conditions: second compound 1 µM; first compound 10 µM; active compounds read low; spheroids with HUVEC and MSC
quantity name: viability, T/C (%)
Give a bare numeral; the unit % is implied.

>  <molecule>
CNC(=O)c1ccc(N2C(=S)N(c3ccc(C#N)c(C(F)(F)F)c3)C(=O)C2(C)C)cc1F + CC(Nc1ccc2c(c1)OCCn1cc(N3C(=O)OCC3C(F)F)nc1-2)C(N)=O

>  <viability, T/C / %>
80.8

$$$$
>  <molecule>
CC1(C)CCC(Nc2ncc(C(F)(F)F)c(-c3c[nH]c4c(P(C)(C)=O)c(C#N)ccc34)n2)CN1 (stereo not given) + CC(Nc1ccc2c(c1)OCCn1cc(N3C(=O)OCC3C(F)F)nc1-2)C(N)=O

>  <viability, T/C / %>
63.1

$$$$
>  <molecule>
CC1(C)CCC(Nc2ncc(C(F)(F)F)c(-c3c[nH]c4c(P(C)(C)=O)c(C#N)ccc34)n2)CN1 (stereo not given) + COc1c(OCCCN2CCOCC2)ccc2c3n(c(=NC(=O)c4cnc(N)nc4)nc12)CCN3

>  <viability, T/C / %>
9.59

$$$$
>  <molecule>
Cn1nccc1Nc1nccc(-c2ccn(C(CO)c3ccc(Cl)c(F)c3)c(=O)c2)n1 (stereo not given) + CC(Nc1ccc2c(c1)OCCn1cc(N3C(=O)OCC3C(F)F)nc1-2)C(N)=O

>  <viability, T/C / %>
31.4

$$$$

Note viability, T/C for the molecule shown: C[C@@H](NC(=O)c1ncnc(N)c1Cl)c1ncc(C(=O)Nc2cc(C(F)(F)F)c(Cl)cn2)s1 + COc1c(OCCCN2CCOCC2)ccc2c3n(c(=NC(=O)c4cnc(N)nc4)nc12)CCN3
23.8

All values here come from PubChem BioAssay AID1963980.
